# test system: SDS-activated 20S proteasome from rabbit muscle (Oryctolagus cuniculus, UniProt G1SU71+G1T4Q9)
# test summary: Kinetic assay: inhibition of the 20S proteasome
# Assay type: biochemical
# details: Table II; SDS-activated 20S proteasome from rabbit muscle, substrate Suc-LLVY-AMC
pKi: −log10 of the molar value.
measure: pKi

// below: answered molecules
Q. Return pKi (reported value) for this molecule: CC(C)C[C@H](NC(=O)[C@H](Cc1ccccc1)NC(=O)c1ccccn1)B(O)O
A. 9.38

Q. Return pKi (reported value) for this molecule: CN[C@@H](Cc1cccc2ccccc12)C(=O)N[C@@H](CC(C)C)B(O)O
A. 8.68

Q. In one line, give reported pKi of the entry CC(C)C[C@H](NC(=O)[C@H](Cc1cccc2ccccc12)NC(=O)N1CCOCC1)B1OCCNCCO1 .
A. 9.82

[a] CC(C)C[C@H](NC(=O)[C@H](Cc1ccccn1)NS(=O)(=O)c1cccc2cccnc12)B(O)O
[b] CC(C)C[C@H](NC(=O)[C@H](Cc1c[nH]c2ccccc12)NS(C)(=O)=O)B(O)O
[c] CC(=O)N[C@@H](CC(C)C)B(O)O
[d] CC(C)C[C@H](NC(=O)[C@@H]1CCCCN1)B(O)O
Q. Highest pKi first, then in falling order down to the smallest. Response field: labels, in requested order.
A. b, a, d, c

----------
# test system: SDS-activated 20S proteasome from rabbit muscle (Oryctolagus cuniculus, UniProt G1SU71+G1T4Q9)
# test summary: Kinetic assay: inhibition of the 20S proteasome
# Format: biochemical
# details: Table II; SDS-activated 20S proteasome from rabbit muscle, substrate Suc-LLVY-AMC
pKi: −log10 of the molar value.
measure: pKi

Check out these entries, answers already filled in.
Q. Output pKi of CC(C)C[C@H](NC(=O)[C@H](Cc1ccccn1)NC(=O)N1CCOCC1)B(O)O [MG-312]
A. 8.20

Q. Give pKi for CC(C)CC(NC(=O)C(CCc1ccccc1)NC(=O)N1CCOCC1)B(O)O (centres unmarked) [MG-322]
A. 8.66

Q. Please give measured pKi of the following entry: CC(C)C[C@H](NC(=O)[C@H](Cc1ccccc1)NC(=O)c1cc[nH]c1)B(O)O [MG-361]
A. 9.85

[a] CC(C)C[C@H](NC(=O)[C@H](Cc1ccccn1)NC(=O)c1cnccn1)B(O)O [MG-368]
[b] CC(C)C[C@H](NC(=O)[C@@H]1Cc2ccccc2CN1)B(O)O [MG-316]
[c] CC(=O)N1Cc2[nH]c3ccccc3c2C[C@H]1C(=O)N[C@@H](CC(C)C)B(O)O [MG-344]
[d] CC(C)C[C@H](NC(=O)[C@H](CC(C)C)NC(=O)[C@H](CC(C)C)NC(=O)N1CCOCC1)B(O)O [MG-278]
[e] O=C(NC(Cc1ccccc1)B(O)O)C(Cc1cccc2ccccc12)NC(=O)N1CCOCC1 (centres unmarked) [MG-321]
Q. Arrange the 5 entries by pKi so the values rise. A complete answer lists every label in the requested sequence.
A. c, b, a, e, d
(c: 7.29, b: 7.66, a: 8.25, e: 9.49, d: 9.85)

----------
# test system: SDS-activated 20S proteasome from rabbit muscle (Oryctolagus cuniculus, UniProt G1SU71+G1T4Q9)
# test summary: Kinetic assay: inhibition of the 20S proteasome
# Type: biochemical
# details: Table II; SDS-activated 20S proteasome from rabbit muscle, substrate Suc-LLVY-AMC
pKi: −log10 of the molar value.
measure: pKi

Q. Give reported pKi value for CC(C)C[C@H](NC(=O)C[C@H](O)[C@H](Cc1cccc2ccccc12)NS(=O)(=O)c1cccc2cccnc12)B(O)O
A. 7.55

[P] CC(C)C[C@H](NC(=O)[C@H](Cc1ccccn1)NC(=O)c1ccc2ccccc2n1)B(O)O
[Q] CC(C)CC(NC(=O)C1CC2CCCCC2N1)B(O)O (stereo not drawn)
[R] CC(C)C[C@H](NC(=O)[C@H](Cc1ccc(OCc2ccccc2)cc1)NC(=O)N1CCOCC1)B(O)O
Q. Ranking field: pKi; order: falling. # list labels per requested ordering
A. R, P, Q
(R: 9.64, P: 8.85, Q: 7.04)

[1] CC(C)C[C@H](NC(=O)[C@H](Cc1cccc2ccccc12)NC(=O)C1CCCCC1)B(O)O
[2] CC(C)C[C@H](NC(=O)[C@@H](N)Cc1ccccn1)B(O)O
[3] CC(C)C[C@H](NC(=O)[C@H](Cc1ccccc1)NC(=O)N1CCOCC1)B(O)O
Q. Sort these compounds on pKi so the largest reading comes first. List labels; respect the requested ordering.
A. 1, 3, 2
(1: 10.52, 3: 9.09, 2: 7.49)
